# Lookup of reported pIC50 keyed by entry
- Tested on: HT-29
- Procedure details: Antiproliferative activity against human HT-29 cells after 72 hrs by MTT assay
- Type: functional, cell-based
- Experimental parameters: HT-29, 72 h
pIC50: −log10 of the molar value.
Reported endpoint: pIC50

1. C[C@H]1CCC/C=C/[C@@H]2C[C@H](O)C[C@H]2[C@H](OC(=O)CCCC(=O)OCCOc2no[n+]([O-])c2S(=O)(=O)c2ccccc2)/C=C/C(=O)O1 :: 6.55
2. C[C@H]1CCC/C=C/[C@@H]2C[C@H](OC(=O)CCCC(=O)OCCCOc3no[n+]([O-])c3S(=O)(=O)c3ccccc3)C[C@H]2[C@H](O)/C=C/C(=O)O1 :: 5.80
3. O=c1[nH]cc(F)c(=O)[nH]1 :: 5.31
4. C[C@H]1CCC/C=C/[C@@H]2C[C@H](OC(=O)CCC(=O)OCCCOc3no[n+]([O-])c3S(=O)(=O)c3ccccc3)C[C@H]2[C@H](O)/C=C/C(=O)O1 :: 6.04
5. C[C@H]1CCC/C=C/[C@@H]2C[C@H](O)C[C@H]2[C@H](OC(=O)c2ccccc2C(=O)OCCOc2no[n+]([O-])c2S(=O)(=O)c2ccccc2)/C=C/C(=O)O1 :: 6.40
6. C[C@H]1CCC/C=C/[C@@H]2C[C@H](O)C[C@H]2[C@H](OC(=O)CCC(=O)OCCCOc2no[n+]([O-])c2S(=O)(=O)c2ccccc2)/C=C/C(=O)O1 :: 6.10
7. C[C@H]1CCC/C=C/[C@@H]2C[C@H](O)C[C@H]2[C@H](OC(=O)c2ccccc2C(=O)OCCCOc2no[n+]([O-])c2S(=O)(=O)c2ccccc2)/C=C/C(=O)O1 :: 6.07
8. C[C@H]1CCC/C=C/[C@@H]2C[C@H](OC(=O)CCCC(=O)OCCOc3no[n+]([O-])c3S(=O)(=O)c3ccccc3)C[C@H]2[C@H](O)/C=C/C(=O)O1 :: 6.74
9. C[C@H]1CCC/C=C/[C@@H]2C[C@H](O)C[C@H]2[C@H](OC(=O)CCC(=O)OCCOc2no[n+]([O-])c2S(=O)(=O)c2ccccc2)/C=C/C(=O)O1 :: 6.64
10. C[C@H]1CCC/C=C/[C@@H]2C[C@H](O)C[C@H]2[C@H](OC(=O)CCCC(=O)OCCCOc2no[n+]([O-])c2S(=O)(=O)c2ccccc2)/C=C/C(=O)O1 :: 5.24
